Values from patent US20080075786A1

Test system: Candida albicans SC5314 strain
Assay explanation: Germination inhibition assay (antihyphal growth activity)
Type: cell-based
Experimental conditions: Candida albicans, SC5314; commercial free fatty acids; complete inhibition of germination, 15 h, 37° C.; gravimetrical quantification; read-out: MIC, antihyphal growth activity of individual free fatty acids
Result type: MIC (µM)

molecule=CCCCCCCCCCCC(=O)O bound_operator== reported=9
molecule="CCCCCCCCCCCCCCC(=O)O [15:0, pentadecanoic acid, reference compound]" bound_operator=> reported=81
molecule=CCCCC/C=C\C/C=C\CCCCCCCC(=O)O bound_operator== reported=81
molecule=CCCCCCCCCC(=O)O bound_operator== reported=9
molecule=CCCCCC/C=C\CCCCCCCC(=O)O bound_operator== reported=9
